measurement-protocol: Luminescent data (absorption, emission, quantum yield, brightness) in solvents
Type: physicochemical
test-context: Ethyl acetate (ϵr 6.0, viscosity 0.45 cP)
Catalogue of compounds with associated Brightness

compound: CCCCCOc1cc2c3cc(OCCCCC)c(OCCCCC)cc3c3c(cc(OCCCCC)c4oc(-c5ccc6cc7ccccc7cc6c5)nc43)c2cc1OCCCCC [Compound 5]
Brightness: 53 ± 5 M⁻¹ cm⁻¹
//
compound: CCCCCOc1cc2c3cc(OCCCCC)c(OCCCCC)cc3c3c(cc(OCCCCC)c4oc(-c5cccc6ccccc56)nc43)c2cc1OCCCCC [Compound 4]
Brightness: 56 ± 5 M⁻¹ cm⁻¹
//
compound: CCCCCOc1cc2c3cc(OCCCCC)c(OCCCCC)cc3c3c(cc(OCCCCC)c4oc(CCCC)nc43)c2cc1OCCCCC [Compound 1]
Brightness: 29 ± 5 M⁻¹ cm⁻¹
//
compound: CCCCCOc1cc2c3cc(OCCCCC)c(OCCCCC)cc3c3c(cc(OCCCCC)c4oc(-c5ccccc5)nc43)c2cc1OCCCCC [Compound 2]
Brightness: 51 ± 5 M⁻¹ cm⁻¹
//
compound: CCCCCOc1cc2c3cc(OCCCCC)c(OCCCCC)cc3c3c(cc(OCCCCC)c4oc(-c5ccc6ccccc6c5)nc43)c2cc1OCCCCC [Compound 3]
Brightness: 92 ± 9 M⁻¹ cm⁻¹

----------
The following molecules are listed with their measured QY values.
measurement-protocol: Luminescence data for pairs of compounds absorbing at the same wavelength and emitting at different wavelengths
Type: physicochemical

mol-smiles: CCCCCOc1cc2c3cc(OCCCCC)c(OCCCCC)cc3c3c(cc(OCCCCC)c4oc(-c5ccc(N(C)C)cc5)nc43)c2cc1OCCCCC
QY: 0.70
--
mol-smiles: CCCCCOc1cc2c3cc(OCCCCC)c(OCCCCC)cc3c3c(cc(OCCCCC)c4oc(-c5ccc(C#N)cc5)nc43)c2cc1OCCCCC
QY: 0.32
--
mol-smiles: CCCCCOc1cc2c3cc(OCCCCC)c(OCCCCC)cc3c3c(cc(OCCCCC)c4oc(-c5ccc(OC)cc5)nc43)c2cc1OCCCCC
QY: 0.40
--
mol-smiles: CCCCCOc1cc2c3cc(OCCCCC)c(OCCCCC)cc3c3c(cc(OCCCCC)c4oc(-c5ccc6ccccc6c5)nc43)c2cc1OCCCCC
QY: 0.55
